- System: OVCAR-3 ovarian
- experimental-protocol: NCI tumour cell line growth inhibition, 48 h
Everything with TGI lower than 20 µM is not met; everything else, including exactly 20 µM, is met.

1) CCOC(=O)Cn1c(C)nc2nn(Cc3ccccc3)cc2c1=O : met
2) CC(C)(CN1CCCCC1)C(=O)CC(SCCS(=O)(=O)O)c1ccc(Cl)c(Cl)c1 (stereo not given) : not met
3) CCOc1cc(C=Nc2ccc(Oc3ccc(Cl)cc3)c(Cl)c2)ccc1O : met
4) CC1=C[C@H]2C[C@@]3(C)O[C@@H]([C@]4(C)CC[C@H]([C@@H](C)C(=O)O)OO4)CC3C(C)(C)[C@H]2CC1 (stereo not given in full) : not met
5) CC(C)S(=O)(=O)n1c(N)nc2ccc(/C(=N/O)c3ccccc3)cc21 : met
6) COc1cccc(C2c3cc4c(cc3OC(N3CCOCC3)C2C)OCO4)c1 (stereo not given) : met
7) CCC[CH2][Ge]([CH2]CCC)([CH2]CCC)[O]C(=O)CCl : not met
8) Cc1nc(-c2ccc(Cl)cc2)cn2c1nc1ccccc12 : met
9) Nc1nc(Cl)cc(NCCCCCCCCCCNc2cc(Cl)nc(N)n2)n1 : met
10) O=C(O)CCN1C(=O)/C(=C/C(Cl)=C/c2ccccc2)SC1=S : not met

----------
- Tested on: M14 melanoma
- experimental-protocol: NCI tumour cell line growth inhibition, 48 h
Listed molecules paired with reported TGI
quantity-name: TGI

1) O=C(O)CCN1C(=O)/C(=C/C(Cl)=C/c2ccccc2)SC1=S : 8.32 µM
2) O=C1C(=O)C(CCCO)(CCCO)CCCCCCCCC1(CCCO)CCCO : > 100 µM
3) NC(=O)c1ccc(-c2c3ccccc3cc3c2ccc2ccccc23)cc1 : 20.1 µM
4) CN(C)CCCN1C(=O)N(CCCN(C)C)c2c3cc(O)ccc3nc3c([N+](=O)[O-])ccc1c23 : 79.1 µM
5) OCC1=C[C@@](COCc2ccccc2)(OCc2ccccc2)[C@@H](OCc2ccccc2)[C@@H]1OCc1ccccc1 : > 100 µM
6) CC(=O)Nc1[nH]c(=O)[nH]c(=O)c1N(C(C)=O)C(C)=O : > 100 µM
7) N#CCc1nc2c(s1)C(=O)c1ccccc1C2=O : 28.5 µM
8) O=[N+]([O-])c1ccc(-c2nc3ccccc3o2)cc1 : > 100 µM
9) c1csc(-c2csc(-c3cccs3)c2)c1 : > 100 µM
10) Cc1ccc(NC(=O)CCC(=O)C(C#N)c2ccc(Cl)cc2)cc1C (stereo not given) : > 100 µM
11) Cc1cc2nnn(C3CCCO3)c2cc1C (stereo not given) : > 100 µM
12) O=C(O)c1oc2ccc([N+](=O)[O-])c3c2c1CCC3 : > 100 µM
13) Nc1ccccc1C#Cc1ccccc1C#CCCCCO : 36.2 µM
14) O=c1[nH]nc(Cc2ccc([N+](=O)[O-])cc2)[nH]1 : > 100 µM
15) Cc1[nH]nc(C(=O)N/N=C/c2cccs2)c1N=NN(C)C : > 100 µM
16) C#Cc1ccccc1C(=O)OC : > 100 µM
17) CCc1ccc(/C=C2/SC(=S)NC2=O)cc1 : 82.8 µM
18) NC(=O)Cn1c(=O)[nH]c(=O)c2[nH]cnc21 : > 100 µM
19) O=C(n1c(=O)n(-c2ccc([N+](=O)[O-])cc2)c(=O)n1C(=O)C(Cl)(Cl)Cl)C(Cl)(Cl)Cl : > 100 µM
20) CCCCC[C@@H]1OC(=O)[C@@]2(CC3c4ccccc4C2c2ccccc23)[C@H]1C(=O)OC : > 100 µM
21) COc1cc(C=NCC(=O)CSC(c2ccccc2)c2ccccc2)cc(OC)c1OC : > 100 µM
22) Cc1ccc(Nc2ccnc(Nc3cccc(C(N)=O)c3)n2)cc1O : > 25 µM
23) Cn1cc(/C=C2\C(=O)Nc3cccnc32)c2ccccc21 : > 25 µM
24) O=c1oc2ccccc2cc1-c1nc2ccccc2s1 : > 47.6 µM
25) CC(C)(C)OC(=O)N[C@@H](Cc1ccccc1)C(=O)N1CC[C@@H](C(=O)N2[C@H]3CC4CC[C@@]3(CS2(=O)=O)C4(C)C)N1 : > 100 µM
26) NC(=S)NS(=O)(=O)c1ccc(Cl)cc1Cl : > 100 µM
27) Cc1cc(=O)[nH]c(S(=O)(=O)NC(=S)Nc2ccc(Br)cc2)n1 : > 100 µM
28) O=c1c2c(=NCCCN3CCCC3)cc3c(=O)n(CCCN4CCCC4)c(=O)c4c(NCCCN5CCCC5)cc(c(O)n1CCCN1CCCC1)c2c4-3 : 20.3 µM
29) CCCCN=C(OC1C=CCCC1)SC (stereo not given) : > 100 µM
30) NC(=NC1C2CC3CC(C2)CC1C3)Nc1ccc(I)cc1 (stereo not given) : 5.04 µM
31) C/C(=N\n1c(N)c(C#N)c(-c2ccc(Cl)cc2)c(C#N)c1=O)c1cccnc1 : > 100 µM
32) CCn1cc(C2NC(=O)c3cc(F)ccc3N2)c2cccc(Cl)c21 (stereo not given) : > 100 µM
33) COc1cccc(C2c3cc4c(cc3OC(N3CCOCC3)C2C)OCO4)c1 (stereo not given) : 71 µM
34) C=CC(=O)N1C/C(=C\c2ccc(F)cc2)C(=O)/C(=C/c2ccc(F)cc2)C1 : 1.38 µM
35) S=C1OC2C3C4CC5C3C(O1)C1C5C4C21 (stereo not given) : > 100 µM
36) Cc1cc(C(C)(C)C)c(OCCCN2CCOCC2)c(C(C)(C)C)c1 : 31.7 µM
37) CC12CC(=O)NN=C1c1ccccc1C2 (stereo not given) : > 100 µM
38) O=C1CCC(c2ccccc2)(c2ccccc2)CC1 : > 100 µM
39) O=C(O)c1cc2c(cc1CC(Cc1ccccc1)C(=O)O)CCC2 (stereo not given) : > 100 µM
40) c1ccc(CN(Cc2ccccn2)Cn2cccn2)nc1 : > 100 µM
41) Clc1cccc(Cl)c1C1ON=C(c2ccccc2)N1C12CC3CC(CC(C3)C1)C2 (stereo not given) : > 100 µM
42) C[Si](C)(C)[C@@]1([Se]c2ccccc2)CC[C@@H]1C(=O)c1ccccc1 : > 100 µM
43) O=C(NC(Cc1c[nH]c2ccccc12)C(=O)O)/C(=C/c1ccccc1)NC(=O)c1ccccc1 (stereo not given) : > 100 µM
44) Cc1ccc(C)c2sc3cc(=O)ccc-3nc12 : 42.7 µM
45) CCCS(=O)OC1C(C2COC(C)(C)O2)OC2OC(C)(C)OC21 (stereo not given) : 37.8 µM

----------
Listed molecules paired with reported TGI
- Test system: OVCAR-5 ovarian
- experimental-protocol: NCI tumour cell line growth inhibition, 48 h
quantity-name: TGI

1) COc1ccc2c3c([nH]c2c1)[C@H]1C[C@H]2[C@H](C[C@@H](O)[C@H](OC)[C@H]2C(=O)O)CN1CC3 : > 100 µM
2) O=C1CCCc2c(O)ccc(O)c21 : > 100 µM
3) Cc1cc(=O)[nH]c(S(=O)(=O)NC(=S)Nc2ccc(Br)cc2)n1 : > 100 µM
4) NC(=O)Nc1n[nH]c(-c2ccccc2)n1 : > 100 µM
5) O/N=C1/CCCCC1NO (stereo unspecified) : > 100 µM
6) NCCCN1CCN(CCCNc2ccc3ncn4c5ccccc5c(=O)c2c34)CC1 : 19.3 µM
7) Cc1ccc(C)c(NC(=O)CCc2n[nH]c(=S)o2)c1 : > 100 µM
8) COCCOC(=O)CCn1cc(F)c(=O)[nH]c1=O : > 150 µg/mL
9) Cc1ccc2c(=O)c3c(O)c4c(cc3n(C)c2c1)OC(C)(C)C=C4 : > 10 µM
10) CCn1c(-c2cc3ccccc3cc2OC(=O)c2ccccc2)n[nH]c1=S : > 50 µM
11) O=C1C(=O)C(CCCO)(CCCO)CCCCCCCCC1(CCCO)CCCO : > 100 µM

----------
- System: UO-31 renal
- experimental-protocol: NCI tumour cell line growth inhibition, 48 h
quantity-name: TGI (µM)

1) O=c1c2c(=NCCCN3CCCC3)cc3c(=O)n(CCCN4CCCC4)c(=O)c4c(NCCCN5CCCC5)cc(c(O)n1CCCN1CCCC1)c2c4-3 : 22
2) CC(C)(CN1CCCCC1)C(=O)CC(SCCS(=O)(=O)O)c1ccc(Cl)c(Cl)c1 (centres undefined) : 16.4
3) CCN(CC)c1ccc(/C=N\NC(=O)c2cccc(Nc3ccnc(C(F)(F)F)c3)c2)c(O)c1 : 2.69
4) NCCCN1CCN(CCCNc2ccc3ncn4c5ccccc5c(=O)c2c34)CC1 : 22.5

----------
- System: RPMI-8226 leukemia
- experimental-protocol: NCI tumour cell line growth inhibition, 48 h
Listed compounds paired with reported TGI
quantity-name: TGI (µM)

1) Cc1[nH]nc(C(=O)N/N=C/c2cccs2)c1N=NN(C)C : 89.7
2) Cc1cc(C(C)(C)C)c(OCCCN2CCOCC2)c(C(C)(C)C)c1 : 34.8
3) CCCCCCCCSC(SCCCCCCCC)=C1C(=O)N(c2ccccc2)N=C1C : 61.9
4) c1ccc(CN(Cc2ccccn2)Cn2cccn2)nc1 : 75.6
5) Clc1cccc(Cl)c1C1ON=C(c2ccccc2)N1C12CC3CC(CC(C3)C1)C2 (stereo unspecified) : 47.8
